Below, each entry is listed alongside its reported growth.
tested on: OVCAR-5 ovarian; assay: NCI-60 one-dose screen, 48 h (100 = growth as untreated, 0 = no growth, -100 = all killed); settings: 10 µM unless noted
Compounds without any hit were thinned out: in the full panel of roughly 83,000, 20% have a hit.
Reply numerically in %, unit not repeated.

Clc1ccc2[nH]cc(-c3cncn3CCc3ccccc3)c2c1
74.7
COc1ccc(C2=NN(C=O)C(c3cccc(Nc4ccnc5cc(Cl)ccc45)c3)C2)cc1 (stereo unspecified)
51.5
COCCOCCOCCOCCOc1ccc2c(c1)C(=O)c1nc3ncccc3c(=O)n1-2
-98.6
CC(C)N(Cc1ccccc1)c1c(Cl)ssc1=O
107
COc1ccc(OC)c(CCn2cncc2-c2c[nH]c3cc(Br)ccc23)c1
79.5

Here is the next item to consider.
Exercise: Quick one: give measured growth for COc1cccc(N2CCN(c3cccc(C)n3)CC2)c1
Key: 96.5

###

Below, each entry is listed alongside its reported growth.
system: U251 CNS; experiment: NCI-60 one-dose screen, 48 h (100 = growth as untreated, 0 = no growth, -100 = all killed); conditions: 10 µM unless noted
This is part of a sample that, as a whole, favours compounds with a hit. Of some 83,000 tested, about 20% had one in any assay. Active and inactive are the calls of the source. Rule for the calls: active = growth percent below 10; inactive = the rest.

c1ccc2nc(Cn3c[n+](Cc4ccc5ccccc5n4)c4ccccc43)ccc2c1
34% (inactive)
Clc1ccc(C2=NN(c3ccc(Cl)cc3)C(c3cccc(Nc4ccnc5cc(Cl)ccc45)c3)C2)cc1 (stereo not given)
76.8% (inactive)
CCCCc1n(Cc2ccc3ccccc3c2)cc[n+]1Cc1ccc2ccccc2c1
-46.5% (active)
COc1ccccc1-n1c(-c2ccc(O)cc2C)cn2c3c(=O)[nH]c(=O)n(C)c3nc12
97.6% (inactive)
COc1cc(C2=NN(C=O)C(c3cccc(Nc4ccnc5cc(Cl)ccc45)c3)C2)cc(OC)c1OC (stereo not given)
66.8% (inactive)
COc1ccc(Oc2ccccc2NC(=O)CNC(=O)c2cccc3ccccc23)cc1
16.9% [5 µM] (inactive)
CC(=O)N1N=C(c2ccc3c(c2)OCO3)CC1c1c(C)nn(-c2ccccc2)c1N(C)Cc1ccccc1 (stereo not given)
72.3% (inactive)
O=C(NC1CCCCC1)c1ccc(Nc2ncnc3c2cnn3-c2ccccc2)cc1
40.2% (inactive)

Exercise: Specify the recorded growth for Clc1ccc(C2c3ccccc3-c3nccn32)c(Cl)c1 (stereo not given) , system: U251 CNS.
Key: 86.3% (inactive)

Exercise: Specify the recorded growth for O=C1c2cccc(NCCN=Cc3ccccc3O)c2C(=O)c2c(NCCN=Cc3ccccc3O)cccc21 , system: U251 CNS.
Key: 7.41% (active)

Exercise: Specify the recorded growth for COc1cc(/C=C/C(=O)CC(=O)/C=C/c2ccc(OC(=O)CCNC34CC5CC(CC(C5)C3)C4)c(OC)c2)ccc1OC(=O)CCNC12CC3CC(CC(C3)C1)C2 , system: U251 CNS.
Key: 22.2% (inactive)

Exercise: Specify the recorded growth for CC[C@@H](C)/C=C(C)/C=C/C(=O)c1c(O)c(-c2ccc(O)cc2)cn(OC2CC(=O)CCC(C)OC(=O)CC2O)c1=O (stereo not given in full) , system: U251 CNS.
Key: 11.1% (inactive)

Exercise: Specify the recorded growth for O=C(CNC(=O)c1cccc2ccccc12)Nc1ccccc1Oc1cccc(O)c1 , system: U251 CNS.
Key: 14.3% [5 µM] (inactive)

Exercise: Specify the recorded growth for CCCCCN1C(=O)CCC1=O , system: U251 CNS.
Key: 99% (inactive)

Exercise: Specify the recorded growth for O=C1C=CC(=O)N1c1ccccc1N1C(=O)C=CC1=O , system: U251 CNS.
Key: 108% (inactive)

Exercise: Specify the recorded growth for Cc1ccc(NC(=O)c2sc3nc4c(cc3c2N)C(=O)CCC4)cc1 , system: U251 CNS.
Key: 86.6% (inactive)

Exercise: Specify the recorded growth for CCCCN=C(N)c1ccc(OCCSCCOc2ccc(C(N)=NCCCC)cc2)cc1 , system: U251 CNS.
Key: 34.5% (inactive)

Exercise: Specify the recorded growth for COc1cc(/C=N/NC(=O)c2ccc(C(F)(F)F)nc2Nc2ccc(Cl)cc2C)ccc1O , system: U251 CNS.
Key: 33.8% (inactive)

Exercise: Specify the recorded growth for O=C1C(=O)/C(=C/c2ccccc2)CCCCCC/C1=C/c1ccccc1 , system: U251 CNS.
Key: 11% (inactive)

Exercise: Specify the recorded growth for N#Cc1c(NC(=O)c2ccco2)[n+]([O-])c2cc(Cl)c(Cl)cc2[n+]1[O-] , system: U251 CNS.
Key: 102% (inactive)

###

system: DU-145 prostate; test: NCI-60 one-dose screen, 48 h; settings: 10 µM unless noted
Compounds without any hit were thinned out: in the full panel of roughly 83,000, 20% have a hit. Active and inactive are the calls of the source. The calls were made as follows: active = growth percent below 10; inactive = the rest.
// classify into Yes (active), No (inactive)

O=C1/C(=C/c2cccc(Cl)c2)CCc2ccccc21
No
COc1cnc2c(c1)C(=O)c1c-2n(CCCN2CCOCC2)c(=O)c2cc(F)ccc12
Yes
CN(C)CCCN=c1cc2c(=O)n(CCCN(C)C)c(=O)c3c(NCCCN(C)C)cc4c(O)n(CCCN(C)C)c(=O)c1c4c3-2
Yes
O=C(Nc1cccc(Cl)c1)Nc1cccc(Cl)c1
No
Cc1c2oc3c(C)ccc(C(=O)OC(C)C4NC(=O)C(C(C)C)N(C)C(=O)CN(C)C(=O)C5CCCN5C(=O)C(C(C)C)NC4=O)c3nc-2c(C(=O)OC(C)C2NC(=O)C(C(C)C)N(C)C(=O)CN(C)C(=O)C3CCCN3C(=O)C(C(C)C)NC2=O)c(N)c1=O (stereo not drawn)
No
NS(=O)(=O)N(c1cc(C(F)(F)F)cc(C(F)(F)F)c1)C1CCN(Cc2ccc(C(F)(F)F)cc2)CC1
Yes

Exercise: Recorded call for COc1cnc2c(c1)C(=O)c1c-2n(CCCNC2=NCCS2)c(=O)c2cc(F)ccc12 ?
Key: No

Exercise: Recorded call for CC(=O)Nc1cc2c3c(cccc3c1)-c1ccccc1-2 ?
Key: No

###

test system: SN12C renal; assay: NCI-60 one-dose screen, 48 h (100 = growth as untreated, 0 = no growth, -100 = all killed); conditions: 10 µM unless noted
The panel holds about 83,000 compounds, 20% with a hit somewhere; the sample as a whole holds those more often. Active and inactive are the calls of the source. How the source made its calls: active means growth percent below 10; inactive means the rest.
reported-property: growth

CCCCCCCCCCCCCCCCCC1=NC(C)(CO)CO1 (stereo unspecified)
94.2% (inactive)
CCSCC1CC(O)(c2ccccc2)C(c2ccccc2)C(c2ccc(Cl)cc2)O1 (stereo unspecified)
-49.9% (active)
COc1cnc2c(c1)C(=O)c1c-2n(CCCNC(C)C)c(=O)c2cc(F)ccc12
-4.41% (active)
CN(C)CCCNc1nn2c(=O)c3ccccc3nc2c2ccccc12
58.3% (inactive)
COc1cnc2c(c1)C(=O)c1c-2n(CCCN2CCC(O)CC2)c(=O)c2cc(F)ccc12
9.71% (active)

Exercise: Quick one: give measured growth for Cn1cnc([N+](=O)[O-])c1Sc1nc(N)nc2nc[nH]c12
Key: 43.6% (inactive)

###

Below, each entry is listed alongside its reported growth.
tested on: BT-549 breast; experiment: NCI-60 one-dose screen, 48 h (100 = growth as untreated, 0 = no growth, -100 = all killed); conditions: 10 µM unless noted
The panel holds about 83,000 compounds, 20% with a hit somewhere; the sample as a whole holds those more often.
Reply numerically in %, unit not repeated.

C[C@H]1O[C@@H](O[C@H]2[C@@H](O)C[C@H](O[C@H]3[C@@H](O)C[C@H](O[C@H]4CC[C@]5(C)C6C[C@@H](O)[C@]7(C)[C@@H](C8=CC(=O)OC8)CC[C@]7(O)C6CC[C@@H]5C4)O[C@@H]3C)O[C@@H]2C)C[C@H](O)[C@@H]1O (stereo partly specified)
-89.6
CCC(C)C1NC(=O)C(CCNCS(=O)(=O)O)NC(=O)C(NC(=O)C(CCNCS(=O)(=O)O)NC(=O)C(NC(=O)C(CCNCS(=O)(=O)O)NC(=O)CCCCC(C)C)C(C)O)CCNC(=O)C(C(C)O)NC(=O)C(CCNCS(=O)(=O)O)NC(=O)C(CCNCS(=O)(=O)O)NC(=O)C(C(C)CC)NC1=O (stereo unspecified)
66.3

Exercise: Specify the recorded growth for NC(=O)NS(=O)(=O)c1ccc(N2N=C(C(F)(F)F)CC2c2cc(C(F)(F)F)cc(C(F)(F)F)c2)cc1 (stereo unspecified) , system: BT-549 breast.
Key: 98

Exercise: Specify the recorded growth for O=C1NC(=O)/C(=C/c2ccc(Cl)cc2Cl)N1 , system: BT-549 breast.
Key: 104

Exercise: Specify the recorded growth for C[C@@H]1C[C@@H]([C@@H](CC2CC(=O)NC(=O)C2)OC(=O)CC(=O)c2ccccc2)C(=O)[C@@H](C)C1 , system: BT-549 breast.
Key: 14.6

Exercise: Specify the recorded growth for CCSCC1CC(O)(c2ccccc2)C(c2ccccc2)C(c2ccc(Cl)cc2)O1 (stereo unspecified) , system: BT-549 breast.
Key: 1.88
